- System name: E-selectin (Homo sapiens, UniProt P16581)
- Sequence (P16581 whole entry): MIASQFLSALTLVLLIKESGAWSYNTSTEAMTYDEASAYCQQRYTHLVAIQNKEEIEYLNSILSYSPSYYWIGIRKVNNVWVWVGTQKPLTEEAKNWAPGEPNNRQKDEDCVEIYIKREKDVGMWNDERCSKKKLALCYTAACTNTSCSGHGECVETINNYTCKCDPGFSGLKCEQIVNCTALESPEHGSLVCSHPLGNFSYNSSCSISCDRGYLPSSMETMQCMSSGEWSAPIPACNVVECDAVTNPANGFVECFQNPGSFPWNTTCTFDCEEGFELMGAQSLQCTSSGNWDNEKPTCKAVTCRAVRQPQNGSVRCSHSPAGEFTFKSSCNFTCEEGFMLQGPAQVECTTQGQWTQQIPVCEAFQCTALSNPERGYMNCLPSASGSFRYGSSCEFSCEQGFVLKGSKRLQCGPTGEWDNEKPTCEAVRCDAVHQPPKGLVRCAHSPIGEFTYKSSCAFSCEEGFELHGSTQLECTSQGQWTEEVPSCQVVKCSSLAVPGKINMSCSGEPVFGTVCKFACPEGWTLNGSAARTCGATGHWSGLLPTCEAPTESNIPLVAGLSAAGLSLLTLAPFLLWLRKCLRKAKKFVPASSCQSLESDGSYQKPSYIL
- Procedure details: In vitro inhibition of HL60 (human leukemia) cell binding to human recombinant e-selectin.
Observable: IC50 (mM)

Illustrative cases are given below, each with its answer.
O=C(O)CCNC(=O)c1ccc(-c2ccccc2O[C@H]2O[C@H](CO)[C@@H](O)[C@@H](O)[C@@H]2O)cc1	36
O=C(O)COc1cccc(-c2ccccc2O[C@H]2O[C@H](CO)[C@@H](O)[C@@H](O)[C@@H]2O)c1	4.9
O=C(O)CC[C@H](NC(=O)c1cccc(-c2ccccc2O[C@H]2O[C@H](CO)[C@@H](O)[C@@H](O)[C@@H]2O)c1)C(=O)O	15.8
O=C(O)c1ccc(-c2ccccc2O[C@H]2O[C@H](CO)[C@@H](O)[C@@H](O)[C@@H]2O)cc1	14.6
CCOP(=O)(O)CCCc1cccc(-c2ccccc2O[C@H]2O[C@H](CO)[C@@H](O)[C@@H](O)[C@@H]2O)c1	34.4

(A) O=C(O)COc1ccccc1-c1ccccc1O[C@H]1O[C@H](CO)[C@@H](O)[C@@H](O)[C@@H]1O
(B) O=C(N[C@@H](Cc1ccccc1)C(=O)O)c1ccc(-c2ccccc2O[C@H]2O[C@H](CO)[C@@H](O)[C@@H](O)[C@@H]2O)cc1
(C) O=C(O)Cc1ccc(-c2ccccc2O[C@H]2O[C@H](CO)[C@@H](O)[C@@H](O)[C@@H]2O)cc1
# sort list by recorded IC50, greatest to least Answer by listing the labels in the requested order. A, B, C
(A: 20 mM, B: 3.8 mM, C: 2.6 mM)
